Please provide measured fractional viability for the entries that follow.
Tested on: TYKNU
Test: fractional viability relative to vehicle; higher = less growth inhibition
Conditions: 2uM; 72 h; genotype: DNM1L knockout (sgDNM1L #1)
In all, about 2,000 compounds were measured (“fractional viability relative to vehicle”: median about 0.91, lowest 2% from about 0.045 on). The entries come from a sample that favours the lowest values as a whole.
One number for each entry.

// worked examples, fractional viability included
O=C(c1cncc(Br)c1)N1CCC(N2CCCC2)CC1 | 0.816
Cn1sc(=O)n(Cc2ccccc2)c1=O | 0.797

In: I would be grateful if you could share the reported fractional viability for `Cc1nc(-c2cccnc2)sc1C(=O)Nc1ccccc1-c1cn2c(CN3CCOCC3)csc2n1` .
Out: 0.821

====

Tested on: TYKNU
Assay: fractional viability relative to vehicle; higher = less growth inhibition
Conditions: 10uM; 72 h; genotype: sgCTRLA1 (non-targeting control)
Structures can show the parent of a compound that is named as a salt. In all, about 2,000 compounds were measured (“fractional viability relative to vehicle”: median about 0.91, lowest 2% from about 0.045 on). The list comes from a sample in which the lowest values are over-represented; it also holds close analogues and randomly drawn compounds.
Please provide measured fractional viability for the entries that follow.
Numbers only.

CCNC(=O)C#Cc1ccc2c(C(=Nc3ccc(CN(C)C)cc3)c3ccccc3)c(O)[nH]c2c1 | 0.0319

I would be grateful if you could provide fractional viability for each of the following entries.
1. O=C(Nc1ccc(OC(F)(F)F)cc1)c1sccc1NCc1ccnc2ccccc12
2. CN(C)Cc1cccc(N=C(c2ccccc2)c2c(O)[nH]c3cc(C(=O)N(C)C)ccc23)c1
3. CCCCCCCCCCCCCCCCn1cc[n+](Cc2ccccc2)c1C
4. CC(C)[C@H](O)C(=O)N[C@@H](C)C(=O)N[C@@H]1C(=O)N(C)CCc2ccccc21
5. C=C[C@@]1(C)CC(=O)[C@]2(O)[C@@]3(C)[C@@H](O)CCC(C)(C)[C@@H]3[C@H](O)[C@H](OC(C)=O)[C@@]2(C)O1
6. CCOC(=O)c1c(CSc2ccccc2)n(C)c2cc(Br)c(O)c(CN(C)C)c12 [Arbidol HCl]
7. CC(C)(Cc1ccc2ccccc2c1)NC[C@@H](O)COc1cccc(Cl)c1C#N

Out:
[0.181, 0.574, 0.00629, 1.15, 1.07, 0.645, 0.0354]

I would be grateful if you could provide fractional viability for each of the following entries.
1. O=C(c1ccc(Nc2nccc(-c3cc4ccccc4s3)n2)cc1)N1CCC(N2CCCC2)CC1
2. NNC(=O)c1ccncc1

Out:
0.0277
1.06

====

Test system: TYKNU
Assay: fractional viability relative to vehicle; TYKNU is a high-grade serous ovarian cancer line; higher = less growth inhibition
Conditions: 2uM; 72 h; genotype: DNM1L knockout (sgDNM1L #1)
In all, about 2,000 compounds were measured (“fractional viability relative to vehicle”: median about 0.91, lowest 2% from about 0.045 on). The list comes from a sample in which the lowest values are over-represented; it also holds close analogues and randomly drawn compounds.
reported property: fractional viability
One number for each entry.

// worked examples, fractional viability included
OCc1ccc(O[C@@H]2O[C@H](CO)[C@@H](O)[C@H](O)[C@H]2O)cc1 [Gastrodin] | 0.926
CCCc1cc2c(N3CCN(C4=NCC(C)(C)S4)CC3)ncnc2s1 [MI-2 (Menin-MLL Inhibitor)] | 0.919

In: What is its fractional viability for TYKNU? Entry: `O=S(=O)(NCCSSCCNS(=O)(=O)c1cc(Cl)ccc1Cl)c1cc(Cl)ccc1Cl`
Out: 0.891

The values you see were collected from the supplement of paper PMC5919970.
